Tested on: A375 melanoma human tumor xenograft
Assay Summary: Example 4-C antitumor efficacy, ectopic A375 melanoma xenograft model
Format: in vivo, female nude mice (nu/nu)
Condition Parameters: Mus musculus, A-375, 10 mpk, qd × 5 × 2, ip, read-out: TGI
Entry flag: 1 (yes) if inhibition in vivo at 10 mg/kg reaches 40%; 0 (no) if it does not.

Look over these answered cases.
| Molecule | Qualitative Label |
| --- | --- |
| CC(OP(=O)(N1CC1)N1CC1)c1ccc([N+](=O)[O-])c(Oc2cccnc2)c1 (centres unmarked) | 0 (no) |
| CN(C)C(=O)c1cccc(Oc2cc(COP(=O)(N3CC3)N3CC3)ccc2[N+](=O)[O-])c1 | 1 (yes) |
| O=[N+]([O-])c1ccc(COP(=O)(N2CC2)N2CC2)cc1Oc1ccc2c(c1)OCO2 | 0 (no) |
| Cc1ccc(Oc2cc(COP(=O)(N3CC3)N3CC3)ccc2[N+](=O)[O-])cn1 | 1 (yes) |

Proceed to the following item.
QUERY: Could you please find out whether O=[N+]([O-])c1ccc(COP(=O)(N2CC2)N2CC2)cc1Oc1ccccc1 has inhibition in vivo at 10 mg/kg that meets 40% or exceeds it?
RESULT: 0 (no)

---

For each of the compounds below, state its AUC.
Assay Summary: Pharmacokinetics in CD-1 mice following a single intraperitoneal dose (parent and TH2660)
Condition Parameters: mouse, in vivo, ip, parent compound
Answers are plain numbers, in ng·h/mL.

Worked set:
| Compound | AUC (ng·h/mL) |
| --- | --- |
| Cc1ccc(Oc2cc(COP(=O)(N3CC3)N3CC3)ccc2[N+](=O)[O-])cn1 | 613 |
| COc1ccc(Oc2cc(C(C)OP(=O)(N3CC3)N3CC3)ccc2[N+](=O)[O-])cc1 (stereo not shown) | 2100 |
| CC(OP(=O)(N1CC1)N1CC1)c1ccc([N+](=O)[O-])c(Oc2ccc(NS(=O)(=O)CCl)cc2)c1 (stereo not shown) | 9650 |

Just so you know, measured AUC for CN(C)C(=O)c1cccc(Oc2cc(COP(=O)(N3CC3)N3CC3)ccc2[N+](=O)[O-])c1 came out at 598

---

Assay Summary: Pharmacokinetics of TH2953 in NU/NU mice with A549 and H460 xenografts
Type: in vivo, Mouse/Nu-Foxn 1nu NU/NU mice
Condition Parameters: Nu-Foxn1nu NU/NU, mouse, plasma, ip, 40 mg/kg, TH2953 40 mg/kg single ip; A549 xenograft
Property: Tmax

compound CC(OP(=O)(N1CC1)N1CC1)c1ccc([N+](=O)[O-])c(Oc2ccc(-c3ccccc3)cc2)c1 (stereo not shown) , Tmax observed: 30 min

---

System: LIXC-086
Assay Summary: TH2870 sensitivity in liver cancer cells
Type: cell-based, human
Condition Parameters: Homo sapiens, AKR1C3 expression ++++, read-out: RelIC50
Property: pIC50
One number for each entry, as −log10 of the molar value.

The measured pIC50 associated with CC(OP(=O)(N1CC1)N1CC1)c1ccc([N+](=O)[O-])c(Oc2cccc(C(=O)N(C)C)c2)c1 (stereo not shown) [Compound 2870] reads 7.39
